Each recorded value in this set is attributed to ChEMBL document CHEMBL5058577.

test system: U2OS; test: Multiplex assay against U2OS; format: toxicity, cell-based; settings: human, 24 h, 1 µM, compound concentration 1 uM, replicate 1
Could you label it TRUE if measured Population Apoptotic (%) is 80% or higher, and FALSE otherwise?

1) COc1cc(C(=O)N(CCCc2ccccc2)Cc2ccc(CC(=O)O)cc2)cc(OC)c1C :: TRUE
2) C[C@H]1[C@H]2CC[C@H]3[C@@H]4CC=C5C[C@@H](N(C)C)CC[C@]5(C)[C@H]4CC[C@]23CN1C :: TRUE
3) CSc1ccccc1N1CCN(CCCCCC(=O)NC2CCCc3ccccc32)CC1.Cl (stereo not given) :: FALSE
4) CC(C)(C)c1ccc(S(=O)(=O)Nc2ccc(Cl)cc2C(=O)c2cc[n+]([O-])cc2)cc1 :: TRUE
5) N#Cc1c(N)nc(SCc2csc(-c3ccc(Cl)cc3)n2)c(C#N)c1-c1ccc(OCCO)cc1 :: TRUE
6) COc1c(C)cc(NC(=O)c2nn(Cc3ccc(F)cc3)c3c2CN(C(=O)c2ccc[nH]2)C[C@]3(C)C(N)=O)cc1C :: FALSE
7) O=C(O)Cc1ccccc1Nc1c(Cl)cccc1Cl :: TRUE
8) O=C(NCCO)c1cccc(-c2cc(Nc3ccc(OC(F)(F)F)cc3)ncn2)c1 :: FALSE
